molecular target: CDK6/Cyclin D1 (Homo sapiens (Human), UniProt Q00534); assay: biochemical; conditions: CDK6_Ki (nM), non-phosphorylated CDK6/Cyclin D1, 2 mM ATP, Morrison fit
Sequence (Q00534 whole entry): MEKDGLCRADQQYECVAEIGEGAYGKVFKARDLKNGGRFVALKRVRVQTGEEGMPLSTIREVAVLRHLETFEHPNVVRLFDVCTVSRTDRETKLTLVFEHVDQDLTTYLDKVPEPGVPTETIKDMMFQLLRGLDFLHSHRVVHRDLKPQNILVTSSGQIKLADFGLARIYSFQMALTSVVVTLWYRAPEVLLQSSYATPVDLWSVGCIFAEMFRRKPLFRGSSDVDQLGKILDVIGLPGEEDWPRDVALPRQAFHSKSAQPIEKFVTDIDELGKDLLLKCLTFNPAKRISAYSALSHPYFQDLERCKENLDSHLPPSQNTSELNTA
Sequence (P24385 whole entry partner): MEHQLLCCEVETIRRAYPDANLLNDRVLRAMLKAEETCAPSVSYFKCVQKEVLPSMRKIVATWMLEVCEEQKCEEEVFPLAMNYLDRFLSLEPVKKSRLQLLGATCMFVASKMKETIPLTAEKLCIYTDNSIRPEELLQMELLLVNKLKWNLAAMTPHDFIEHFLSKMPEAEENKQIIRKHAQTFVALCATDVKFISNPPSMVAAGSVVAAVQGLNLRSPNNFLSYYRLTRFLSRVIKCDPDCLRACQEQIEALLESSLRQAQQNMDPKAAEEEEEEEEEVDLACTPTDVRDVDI
endpoint-name: Ki (nM)

CS(=O)(=O)N1CCC(Nc2ncc3cc(N)c(=O)n(C4CCCC4)c3n2)CC1 | 1.2

[P] CS(=O)(=O)N1CC[C@@H](Nc2ncc3cc(Cl)c(=O)n(C4CCCC4)c3n2)[C@H](F)C1 (single isomer, unassigned)
[Q] CC1(C)CC(Nc2ncc3cc(CCO)c(=O)n(C4CCCC4)c3n2)CCN1S(C)(=O)=O (single isomer, unassigned; (+))
[R] CNS(=O)(=O)N1CCC(Nc2ncc3ccc(=O)n([C@H]4C[C@H](O)CC[C@@H]4F)c3n2)CC1 (single isomer, unassigned)
[S] Cc1cc2cnc(NC3CCN(S(=O)(=O)NCC(C)(F)F)CC3)nc2n([C@H]2CCC[C@]2(C)O)c1=O (single isomer, unassigned)
[T] C[C@]1(O)CCC[C@@H]1n1c(=O)c(CCO)cc2cnc(NC3CCN(S(C)(=O)=O)CC3)nc21 (single isomer, unassigned)
rank_up(items): orders items by reported Ki in ascending numerical order. Form entry: ranked labels (order as requested).
P, R, T, Q, S

###

molecular target: CDK2/Cyclin E1 (Homo sapiens (Human), UniProt P24941); assay: biochemical; details: CDK2_Ki (nM), phosphorylated CDK2/Cyclin E1, 150 μM ATP, Morrison tight-binding fit
endpoint-name: Ki (nM)

C[C@@]1(O)CCC[C@H]1n1c(=O)ccc2cnc(NC3CCN(S(=O)(=O)NC4CCOCC4)CC3)nc21 (single isomer, unassigned) | 0.41

[I] CNS(=O)(=O)N1CCC(Nc2ncc3ccc(=O)n(C4CCCCCC4)c3n2)CC1
[II] CNS(=O)(=O)N1CCC(Nc2ncc3ccc(=O)n([C@H]4CCC[C@]4(C)O)c3n2)CC1 (single isomer, unassigned)
[III] Cc1cc2cnc(NC3CCN(S(=O)(=O)C4CCS(=O)(=O)C4)CC3)nc2n([C@H]2CCC[C@]2(C)O)c1=O (single isomer, unassigned; isomer b) [Example 107]
[IV] C[C@]1(O)CCC[C@@H]1n1c(=O)c(CC#N)cc2cnc(NC3CCN(S(C)(=O)=O)CC3)nc21 (single isomer, unassigned)
Sort low-to-high on Ki, please. Please list the labels according to the requested order.
I, IV, II, III

###

target: CDK6/Cyclin D1 (Homo sapiens (Human), UniProt Q00534); test: biochemical; conditions: CDK6_Ki (nM), non-phosphorylated CDK6/Cyclin D1, 2 mM ATP, Morrison fit
endpoint-name: Ki (nM)

# annotated cases, reported Ki shown
COCCc1cc2cnc(N[C@H]3CCN(S(C)(=O)=O)C[C@@H]3F)nc2n(C2CCCC2)c1=O (single isomer, unassigned) [Example 158] | 0.66
CNS(=O)(=O)N1CCC(Nc2ncc3ccc(=O)n([C@@H]4CCC[C@@H]4C)c3n2)CC1 [Example 44] | 0.82
CS(=O)(=O)N1CCC(Nc2ncc3cc(CC(N)=O)c(=O)n([C@@H]4CCC[C@@H](O)C4)c3n2)CC1 (single isomer, unassigned) [Example 213] | 9.15

[I] CCS(=O)(=O)N1CCC(Nc2ncc3ccc(=O)n([C@H]4CCC[C@]4(C)O)c3n2)CC1 (single isomer, unassigned) [Example 77]
[II] C[C@@]1(O)CCC[C@H]1n1c(=O)ccc2cnc(NC3CCN(S(=O)(=O)C4CCS(=O)(=O)C4)CC3)nc21 (single isomer, unassigned) [Example 70]
[III] COCc1cc2cnc(NC3CCN(S(C)(=O)=O)CC3)nc2n([C@@H]2CCC[C@@H]2C)c1=O [Example 48]
Sort ascending by Ki. // list labels; follow requested order
III, II, I
